Source of measurements: ChEMBL document CHEMBL3616384

# TEST PROTOCOL: Cytoprotective activity in rat INS-1E cells assessed as suppression of recombinant rat IL-1beta/recombinant mouse IFN-gamma and TNF-alpha-induced caspase-3 expression after 48 hrs by Caspase-Glo 3/7 assay
# Format: functional, cell-based
Threshold check on %max: strictly below 20% is satisfied; on or above 20% is not satisfied.

[
  {
    "MOLECULE SMILES": "Cc1cc2nc(-c3ccc(C(=O)N/N=C/c4cc(O)ccc4O)cc3)[nH]c2cc1C",
    "CATEGORY LABEL": "not satisfied"
  }
]

Regarding `Cc1cc2nc(-c3ccc(C(=O)N/N=C/c4cccc(O)c4O)cc3)[nH]c2cc1C` , kindly confirm whether its %max is beneath 20%.
not satisfied

Lookup `Cc1cc2nc(-c3ccc(C(=O)N/N=C/c4ccc(O)cc4O)cc3)[nH]c2cc1C`
not satisfied

Lookup `Cc1cc2nc(-c3ccc(C(=O)N/N=C/c4ccc(O)c(O)c4)cc3)[nH]c2cc1C`
not satisfied

Lookup `COc1ccc(/C=N/NC(=O)c2ccc(-c3nc4cc(C)c(C)cc4[nH]3)cc2)c(O)c1`
satisfied

Lookup `COc1ccc(O)c(/C=N/NC(=O)c2ccc(-c3nc4cc(C)c(C)cc4[nH]3)cc2)c1`
satisfied

Lookup `Cc1cc2nc(-c3ccc(C(=O)N/N=C/c4cc(O)c(O)c(O)c4)cc3)[nH]c2cc1C`
not satisfied
